Molecular target: Active Human ERK2 (hERK2) (Homo sapiens (Human))
Assay: Active Human ERK2 (hERK2) Activity Assay (IMAP-FP)
Type: biochemical
Conditions: phosphorylated active hERK2, 30 μM ATP; average; read-out: ERK 2 Human average IC50
RECORDED_ENDPOINT: IC50 (nM)

compound=COc1cncc(-c2n[nH]c3cc(NC(=O)N[C@H](C)c4ccc(F)cc4)ncc23)n1 recorded_endpoint=IC50 test_result=5.26
compound=O=C(Nc1cc2[nH]nc(C3CC3)c2cn1)N[C@@H]1CCOc2ccccc21 recorded_endpoint=IC50 test_result=70

P = COC(=O)C1CC1c1n[nH]c2cc(NC(=O)N[C@H](C)c3ccccc3)ncc12 (stereo partly drawn) [Example 644]
Q = Cc1cc(-c2n[nH]c3cc(NC(=O)NCC(=O)N(C)C)ncc23)ccn1
R = Cc1cc(-c2n[nH]c3cc(NC(N)=O)ncc23)ccn1
S = Cc1cc(-c2n[nH]c3cc(NC(=O)NCc4cnsn4)ncc23)ccn1
Output the entries ranked by IC50 from maximum down to minimum. Put the labels in the requested order and write them down.
Q, R, P, S
(Q: 52.3 nM, R: 2 nM, P: 1.07 nM, S: 0.323 nM)

---

Target: UniProt P28482
Assay: Active Human ERK2 (hERK2) Activity Assay (IMAP-FP)
Format: biochemical
Details: phosphorylated active hERK2, 30 μM ATP; average; read-out: ERK 2 Human average IC50
RECORDED_ENDPOINT: IC50 (nM)

Guide cases for IC50, answers given:
molecule=Cn1cc2cc(-c3n[nH]c4cc(NC(=O)NCc5ccc(F)c(Cl)c5)ncc34)ccc2n1 test_result=0.586
molecule=Cc1cc(-c2n[nH]c3cc(NC(=O)N[C@@H]4CN(C)C[C@H]4c4cccc(Cl)c4)ncc23)ccn1 test_result=0.233
molecule=Cc1cc(-c2n[nH]c3cc(NC(=O)NC4(c5ccccn5)CCCC4)ncc23)ccn1 test_result=137
molecule=COc1ccc(CNC(=O)Nc2cc3[nH]nc(C4CC4)c3cn2)cc1 test_result=60.1
molecule=COc1ncc(-c2n[nH]c3cc(NC(=O)N[C@H](C)c4ccc(F)cc4)ncc23)cn1 test_result=0.746

I = C[C@@H](NC(=O)Nc1cc2[nH]nc(-c3ccc(OC(F)(F)F)cc3)c2cn1)c1ccccc1
II = C[C@@H](NC(=O)Nc1cc2[nH]nc(C(F)F)c2cn1)c1ccccn1
Smaller IC50 value? Options are I and II Kindly give the label for the entry you pick.
I

I = COC[C@@H](NC(=O)Nc1cc2[nH]nc(C3CC3(F)F)c2cn1)c1ccccc1 (stereo partly drawn)
II = Cc1cc(-c2n[nH]c3cc(NC(=O)NC(c4ccccc4)C4CCCO4)ncc23)ccn1 (stereo not drawn)
Smaller IC50 value? Options are I and II Kindly give the label for the entry you pick.
II

I = Cc1cc(-c2n[nH]c3cc(NC(=O)NCc4ccccc4F)ncc23)ccn1
II = Cc1cc(-c2n[nH]c3cc(NC(=O)N[C@H]4[C@H](c5ccccc5C)CN(C)[C@H]4C)ncc23)ccn1
III = Cc1cc(-c2n[nH]c3cc(NC(=O)N[C@H](CO)c4ccc(F)cc4)ncc23)ccn1
IV = Cc1cc(-c2n[nH]c3cc(NC(=O)N[C@@H](c4ccccc4)[C@@H]4CCCO4)ncc23)ccn1
Output the entries ranked by IC50 from maximum down to minimum. Put the labels in the requested order and write them down.
III, I, II, IV

---

Molecular target: Active Human ERK2 (hERK2) (Homo sapiens (Human))
Experiment: Active Human ERK2 (hERK2) Activity Assay (IMAP-FP)
Format: biochemical
Settings: phosphorylated active hERK2, 30 μM ATP; average; read-out: ERK 2 Human average IC50
pIC50: −log10 of the molar value.
RECORDED_ENDPOINT: pIC50

smiles_input=Cc1cc(-c2n[nH]c3c(F)c(NC(=O)NCc4ccccc4)ncc23)ccn1 assayed_target="Active Human ERK2 (hERK2) (Homo sapiens (Human))" test_result=8.94
smiles_input=Cc1cc(-c2n[nH]c3cc(NC(=O)NCc4ncco4)ncc23)ccn1 assayed_target="Active Human ERK2 (hERK2) (Homo sapiens (Human))" test_result=8.53

1 = Cc1cc(-c2n[nH]c3cc(NC(=O)NCc4ccc(Cl)cc4Cl)ncc23)ccn1
2 = COC[C@@H](NC(=O)Nc1cc2[nH]nc(-c3ccc(C#N)cc3)c2cn1)c1ccccc1
Smaller pIC50 value? Options are 1 and 2 Kindly give the label for the entry you pick.
1

---

Target: Active Human ERK2 (hERK2) (Homo sapiens (Human), UniProt P28482)
Sequence (P28482 whole entry): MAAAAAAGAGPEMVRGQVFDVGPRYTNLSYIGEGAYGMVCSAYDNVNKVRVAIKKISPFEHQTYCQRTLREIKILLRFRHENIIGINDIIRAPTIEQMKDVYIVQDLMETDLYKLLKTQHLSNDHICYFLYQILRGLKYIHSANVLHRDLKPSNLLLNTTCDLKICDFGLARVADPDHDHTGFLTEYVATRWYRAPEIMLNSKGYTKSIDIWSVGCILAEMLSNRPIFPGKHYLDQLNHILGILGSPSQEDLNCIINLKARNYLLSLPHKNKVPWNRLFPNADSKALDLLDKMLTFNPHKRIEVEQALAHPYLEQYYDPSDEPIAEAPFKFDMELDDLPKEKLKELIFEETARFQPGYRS
Assay: Active Human ERK2 (hERK2) Activity Assay (IMAP-FP)
Type: biochemical
Details: phosphorylated active hERK2, 30 μM ATP; average; read-out: ERK 2 Human average IC50
RECORDED_ENDPOINT: IC50 (nM)

Guide cases for IC50, answers given:
compound=Cc1cc(-c2n[nH]c3cc(NC(=O)N[C@H](C)c4ccc(F)cn4)ncc23)ccn1 test_result=0.858
compound=Cc1cc(-c2n[nH]c3cc(NC(=O)N4CCN(c5ccc(F)cc5)C[C@H]4C)ncc23)ccn1 test_result=2290
compound=O=C(NCc1ccccc1)Nc1cc2[nH]nc(C3CCC3)c2cn1 test_result=11.2

a = Cc1cc(-c2n[nH]c3cc(NC(=O)NC4CCc5[nH]nc(C)c5C4)ncc23)ccn1 (centres unmarked)
b = Cc1cc(-c2n[nH]c3cc(NC(=O)NCC4(O)CC4)ncc23)ccn1
c = Cc1cc(-c2n[nH]c3cc(NC(=O)N[C@H](CN)c4ccccc4)ncc23)ccn1
Output the entries ranked by IC50 from maximum down to minimum. Put the labels in the requested order and write them down.
b, a, c
(b: 9.9 nM, a: 0.762 nM, c: 0.152 nM)

1 = Cc1cc(-c2n[nH]c3cc(NC(=O)N[C@@H](CN)c4ccccc4)ncc23)ccn1 [Example 172]
2 = Cc1cc(-c2n[nH]c3cc(NC(=O)NCc4c(F)cc(F)cc4F)ncc23)ccn1
3 = Cc1cc(-c2n[nH]c3cc(NC(=O)NCC(O)C4CCCCC4)ncc23)ccn1 (centres unmarked)
4 = COc1ccc(CNC(=O)Nc2cc3[nH]nc(-c4ccc(F)cc4)c3cn2)cc1OC
5 = Cc1cc(-c2n[nH]c3cc(NC(=O)NCC4CCCO4)ncc23)ccn1 (centres unmarked)
Output the entries ranked by IC50 from maximum down to minimum. Put the labels in the requested order and write them down.
1, 4, 5, 3, 2
(1: 243 nM, 4: 15.2 nM, 5: 8.46 nM, 3: 4.11 nM, 2: 0.962 nM)

---

Target: Active Human ERK2 (hERK2) (Homo sapiens (Human))
Assay: Active Human ERK2 (hERK2) Activity Assay (IMAP-FP)
Assay type: biochemical
Conditions: phosphorylated active hERK2, 30 μM ATP; average; read-out: ERK 2 Human average IC50
pIC50: −log10 of the molar value.
RECORDED_ENDPOINT: pIC50

1 = Cc1cc(-c2n[nH]c3cc(NC(=O)NC(C)c4ccc(-n5cncn5)cc4)ncc23)ccn1 (stereo not shown)
2 = Cc1cc(-c2n[nH]c3cc(NC(=O)NCc4cncc(F)c4)ncc23)ccn1
Smaller pIC50 value? Options are 1 and 2 Kindly give the label for the entry you pick.
1
(1: 7.89, 2: 9.00)

1 = COCC(C)NC(=O)Nc1cc2[nH]nc(-c3ccnc(C)c3)c2cn1 (stereo not shown)
2 = Cc1cc(-c2n[nH]c3cc(NC(=O)N[C@@H]4CCCc5cccnc54)ncc23)ccn1
Smaller pIC50 value? Options are 1 and 2 Kindly give the label for the entry you pick.
1
(1: 7.93, 2: 8.90)

---

Molecular target: UniProt P28482
Experiment: Active Human ERK2 (hERK2) Activity Assay (IMAP-FP)
Assay type: biochemical
Settings: phosphorylated active hERK2, 30 μM ATP; average; read-out: ERK 2 Human average IC50
RECORDED_ENDPOINT: IC50 (nM)

Guide cases for IC50, answers given:
molecule="COC[C@@H](NC(=O)Nc1cc2[nH]nc(-c3ccnc(C#N)c3)c2cn1)c1ccc(F)cc1 [Example 304]" test_result=1.75
molecule="Cc1cc(-c2n[nH]c3cc(NC(=O)NC4(c5ccccn5)CCC4)ncc23)ccn1 [Example 355]" test_result=1.54
molecule="CCOc1ncccc1CNC(=O)Nc1cc2[nH]nc(-c3ccnc(C)c3)c2cn1 [Example 526]" test_result=0.546

I = Cc1cc(-c2n[nH]c3cc(NC(=O)N[C@H](c4ccccc4)[C@@H]4CCCO4)ncc23)ccn1 [Example 552]
II = COCCNC(=O)Nc1cc2[nH]nc(-c3ccnc(OC(C)C)c3)c2cn1 [Example 604]
Smaller IC50 value? Options are I and II Kindly give the label for the entry you pick.
II

1 = Cc1cc(-c2n[nH]c3cc(NC(=O)NCCC(=O)Nc4ccccc4Br)ncc23)ccn1 [Example 399]
2 = COCCOC[C@@H](NC(=O)Nc1cc2[nH]nc(-c3cc(C)on3)c2cn1)c1ccccc1 [Example 700]
Among 1 and 2 , which shows a numerically higher IC50 result? Kindly give the label for the entry you pick.
2

a = Cc1cc(-c2n[nH]c3cc(NC(=O)NCCOC(C)C)ncc23)ccn1 [Example 451]
b = CC(C)CN(C)c1ncc(-c2n[nH]c3cc(NC(=O)N[C@H](C)c4ccc(F)cc4)ncc23)cn1 [Example 309]
c = Cn1cc(-c2n[nH]c3cc(NC(=O)NCc4ccc(F)c(Cl)c4)ncc23)cn1 [Example 60]
d = Cc1cc(-c2n[nH]c3cc(NC(=O)NC4CC(=O)Nc5ccc(F)cc54)ncc23)ccn1 (centres unmarked) [Example 396]
Hey, can you sort those molecules up there by IC50, smallest first? Put the labels in the requested order and write them down.
c, a, d, b

1 = Cc1cc(-c2n[nH]c3cc(NC(=O)NCc4nccs4)ncc23)ccn1 [Example 436]
2 = C[C@@H](NC(=O)Nc1cc2[nH]nc(C3CCC3)c2cn1)c1ccc(F)cc1 [Example 144]
3 = C[C@@H](NC(=O)Nc1cc2[nH]nc(-c3ccc4nncn4c3)c2cn1)c1ccc(F)cc1 [Example 246]
4 = COc1cccc(F)c1CNC(=O)Nc1cc2[nH]nc(-c3ccnc(C)c3)c2cn1 [Example 485]
Output the entries ranked by IC50 from maximum down to minimum. Put the labels in the requested order and write them down.
2, 1, 3, 4

I = Cc1cc(-c2n[nH]c3cc(NC(=O)NCc4ncnn4C)ncc23)ccn1 [Example 424]
II = Cc1cc(-c2n[nH]c3cc(NC(=O)NC(CN)c4ccc(F)cc4)ncc23)ccn1 (centres unmarked) [Example 522]
III = Cc1cc(-c2n[nH]c3cc(NC(=O)N[C@@H](C)c4ccccn4)ncc23)ccn1 [Example 176]
IV = Cc1cc(-c2n[nH]c3cc(NC(=O)N[C@@H](C)C(=O)O)ncc23)ccn1 [Example 454]
Output the entries ranked by IC50 from maximum down to minimum. Put the labels in the requested order and write them down.
IV, III, I, II
(IV: 237 nM, III: 41 nM, I: 2.55 nM, II: 0.357 nM)

1 = Cc1ccnc(C(C)NC(=O)Nc2cc3[nH]nc(-c4ccnc(C)c4)c3cn2)c1 (centres unmarked) [Example 498]
2 = CN1C[C@@H](NC(=O)Nc2cc3[nH]nc(-c4ccc(F)cc4)c3cn2)[C@H](c2ccccc2)C12COC2 [Example 557]
Smaller IC50 value? Options are 1 and 2 Kindly give the label for the entry you pick.
2

P = Cc1cc(-c2n[nH]c3cc(NC(=O)NCc4ccc(C(F)(F)F)cc4)ncc23)ccn1 [Example 54]
Q = C[C@@H](NC(=O)Nc1cc2[nH]nc(-c3ccc4c(c3)OCCO4)c2cn1)c1ccccc1 [Example 88]
Among P and Q , which shows a numerically higher IC50 result? Kindly give the label for the entry you pick.
P

P = CC[C@@H](NC(=O)Nc1cc2[nH]nc(-c3ccnc(C)c3)c2cn1)c1ccccn1 [Example 218]
Q = Cc1cc(-c2n[nH]c3cc(NC(=O)N[C@@H]4[C@H](CO)[C@H]5CC[C@@H]4O5)ncc23)ccn1 [Example 367]
Smaller IC50 value? Options are P and Q Kindly give the label for the entry you pick.
P
(P: 0.487 nM, Q: 4.51 nM)

These data points were gathered from patent US9023865B2.
